- tested_system: ctPrp43 (Chaetomium thermophilum? (printed C. …, UniProt G0RY84 1-764))
- Sequence (G0RY84 entry or part of it): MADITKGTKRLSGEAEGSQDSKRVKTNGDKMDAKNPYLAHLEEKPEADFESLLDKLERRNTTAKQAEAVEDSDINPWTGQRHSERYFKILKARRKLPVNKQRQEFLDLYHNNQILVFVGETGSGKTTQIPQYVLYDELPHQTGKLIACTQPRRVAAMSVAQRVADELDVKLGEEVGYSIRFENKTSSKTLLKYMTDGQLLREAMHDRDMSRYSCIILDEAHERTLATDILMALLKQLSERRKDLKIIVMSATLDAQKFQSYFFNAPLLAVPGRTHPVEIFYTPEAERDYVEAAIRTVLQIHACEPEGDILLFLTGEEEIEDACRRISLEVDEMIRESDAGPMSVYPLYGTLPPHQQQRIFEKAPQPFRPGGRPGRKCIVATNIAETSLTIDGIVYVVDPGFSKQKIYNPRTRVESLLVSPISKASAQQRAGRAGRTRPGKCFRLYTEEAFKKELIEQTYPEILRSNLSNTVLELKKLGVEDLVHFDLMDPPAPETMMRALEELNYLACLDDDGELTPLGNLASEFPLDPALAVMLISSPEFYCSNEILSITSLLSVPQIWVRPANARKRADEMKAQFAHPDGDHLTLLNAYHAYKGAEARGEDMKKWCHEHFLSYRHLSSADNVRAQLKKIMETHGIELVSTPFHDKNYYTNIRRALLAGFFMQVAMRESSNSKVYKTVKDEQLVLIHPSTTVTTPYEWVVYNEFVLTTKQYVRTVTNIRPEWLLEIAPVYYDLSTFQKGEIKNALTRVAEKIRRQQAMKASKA
- protocol_notes: fluorescence anisotropy; AMPPNP (100-fold excess), 3 mM MgCl2; Fluorescence anisotropy: 25 mM Tris pH 7.5, 150 mM KCl, 3 mM MgCl2, 25 C, 0.1 uM RNA, 0.01-50 uM protein, 100-fold excess AMPPNP
- condition_set: protein: recombinant; tags: GST-tag removed; label: 5' 6-carboxyfluorescein; single strand
readout: Kd (µM)
The response must be a number in µM with no trailing unit.

UUUUUUUUUUUUUUUU (ssRNA) [5'-6FAM-U16-RNA] has a reported Kd of 4.98
